Quick reference for GI50 among some compounds
Tested on: SK-MEL-28
assay name: NCI tumour cell line growth inhibition, 48 h
The source made the active and inactive calls. Rule as the data show it: active = GI50 up to about 1.1 µM and inactive = higher.

{"compound": "O=C(/C=C\\c1ccc(Cl)cc1Cl)c1cccs1", "GI50": "24.5 µM (inactive)"}
{"compound": "Nc1ccn(C2OC(CO)C(O)C2O)c(=O)c1 (stereo not given)", "GI50": "> 625 µM (inactive)"}
{"compound": "N#CC(/C(CCCC(=O)Nc1cccc([N+](=O)[O-])c1)=N/NC(=O)c1cc2ccccc2cc1O)c1ccccc1 (stereo not given)", "GI50": "> 100 µM (inactive)"}

The measured GI50 associated with "COc1ccc2[nH]c3c(c2c1)[C@H](C)C[C@@H]1C(=O)N(c2ccccc2)C(=O)[C@H]31" reads > 100 µM (inactive)

The measured GI50 associated with "O=C1C=CC2(C=C1)C[C@H](NC(=O)OCc1ccccc1)C(=O)O2" reads 13 µM (inactive)

The measured GI50 associated with "CC(=O)OCc1cccc(O)c1C(=O)CCC=C(C)C" reads > 100 µM (inactive)

The measured GI50 associated with COC(=O)C1C(O)C(C)C(O)C(C)C=C(C)C2=C3C(=C(C)C(=O)c4c(O)c(c(C)c(OC(C)=O)c43)NC(=O)C(C)=C/C=C\C(C)C(O)C(C)C1O)OCO2 (stereo not given) reads 22.3 µM (inactive)

The measured GI50 associated with "COC(=O)/N=[N+](\[O-])C(c1ccccc1)c1ccccc1" reads > 100 µM (inactive)

The measured GI50 associated with "CN(C)c1nc(N(C)C)sc(=O)n1" reads > 100 µM (inactive)

The measured GI50 associated with O=C1CSC2(CC(/C=C/c3ccccc3[N+](=O)[O-])=NN2c2cccc(S(=O)(=O)O)c2)N1c1nc2ccccc2s1 (stereo not given) reads 38 µM (inactive)

* * *

Quick reference for GI50 among some compounds
Test system: UACC-62
assay name: NCI tumour cell line growth inhibition, 48 h
The source made the active and inactive calls. Cut-off read from the data, not from the text of the source: active = GI50 up to about 1.1 µM and inactive = higher.

Example entries begin here.
{"compound": "COc1cc(C(=O)O)c(-c2cc3c(cc2C=O)OCO3)c(OC)c1OC", "GI50": "> 10 µM (inactive)"}
{"compound": "CCN(CC)CCNc1ccc2ncn3c4c(OC)ccc(O)c4c(=O)c1c23", "GI50": "35.7 µM (inactive)"}

With UACC-62 as the test system, "CN(C)/N=C(/CC(O)(C(F)(F)F)C(F)(F)F)c1ccc([N+](=O)[O-])cc1" showed GI50 of > 100 µM (inactive)

With UACC-62 as the test system, "O=c1/c(=C/c2ccc(Cl)cc2Cl)sc2nc3ccccc3n12" showed GI50 of > 100 µM (inactive)

* * *

Test system: UO-31
assay name: NCI tumour cell line growth inhibition, 48 h
The source made the active and inactive calls. No stated cut-off is given here; in the data, active = GI50 up to about 1.1 µM and inactive = higher.
Quick reference for GI50 among some compounds

The measured GI50 associated with "COc1ccc2[nH]c3c(c2c1)[C@H](C)C[C@@H]1C(=O)N(c2ccccc2)C(=O)[C@H]31" reads 36.2 µM (inactive)

The measured GI50 associated with CCOC(=O)C(NC(=O)c1ccccc1)(N1CCOCC1)C(F)(F)F (stereo not drawn) reads > 100 µM (inactive)

The measured GI50 associated with COC(=O)C1C(OS(=O)(=O)O)CCC2CN3CCc4c([nH]c5ccccc45)C3CC21 (stereo not drawn) reads > 100 µM (inactive)

The measured GI50 associated with COP(=O)(OC)C(Cc1c[nH]c2ccccc12)NC(=O)OCc1ccccc1 (stereo not drawn) reads > 100 µM (inactive)

The reported measurements were obtained from ChEMBL document CHEMBL1201862.
